Ref: patent US20080021026A1

Molecular target: recombinant N-terminal GST-tagged human Rho kinase 1 (ROCK1, amino acids 1-535) (Homo sapiens)
Construct: ROCK1, amino acids 1-535; purchased Invitrogen Inc. PV-3691
Experiment: In vitro Rho kinase assay (luciferase-based ATP consumption), ROCK1
Type: biochemical
Settings: recombinant GST-tagged human ROCK1, luciferase-based ATP consumption; read-out: ROCK1 IC50
Result Type: IC50

Cc1c(-c2ccnc(N)n2)sc2ccc(CNC(=O)c3cccc(F)c3)cc12 > 5 µM
COc1cc(C(=O)NCc2ccc3sc(-c4ccnc(N)n4)c(C)c3c2)cc(Cl)n1 < 5 µM
Cc1c(-c2ccnc(N)n2)sc2ccc(Nc3cncc(O)c3)cc12 < 5 µM
Cc1c(-c2ccnc(N)n2)sc2ccc(CNC(=O)c3cc(Cl)ccc3O)cc12 > 5 µM
Cc1ccc(C(=O)NCc2ccc3sc(-c4ccnc(N)n4)c(C)c3c2)c(C)c1 < 5 µM
COc1cc(OC)c(C(=O)NCc2ccc3sc(-c4ccnc(N)n4)c(C)c3c2)cc1OC < 5 µM
Cc1c(-c2ccnc(N)n2)sc2ccc(CNC(=O)Cc3ccc(O)c(Cl)c3)cc12 < 5 µM
Cc1c(C(=O)NCc2ccc3sc(-c4ccnc(N)n4)c(C)c3c2)cccc1[N+](=O)[O-] > 5 µM
Cc1c(-c2ccnc(N)n2)sc2ccc(CNC(=O)c3cc(F)c(F)c(O)c3F)cc12 < 5 µM
Cc1c(-c2ccnc(N)n2)oc2ccc(Cc3cccc(O)c3)cc12 < 5 µM
CCCCOc1ccc(C(=O)NCc2ccc3sc(-c4ccnc(N)n4)c(C)c3c2)cc1 > 5 µM
COc1cccc(N(C)c2ccc3sc(-c4ccnc(N)n4)c(C)c3c2)c1 < 5 µM
Cc1c(-c2ccnc(N)n2)sc2ccc(CNC(=O)c3ccc(F)cc3)cc12 > 5 µM
Cc1ccccc1CCC(=O)NCc1ccc2sc(-c3ccnc(N)n3)c(C)c2c1 > 5 µM
Cc1c(-c2ccnc(N)n2)sc2ccc(CNC(=O)Cc3ccc(C(F)(F)F)cc3)cc12 < 5 µM
Cc1c(-c2cc(N)ncn2)sc2ccc(Cl)cc12 > 5 µM
Cc1c(-c2ccnc(N)n2)sc2ccc(CNC(=O)c3cc(F)ccc3[N+](=O)[O-])cc12 < 5 µM

====

The entries below are paired with their reported pIC50.
Target: recombinant N-terminal GST-tagged human Rho kinase 1 (ROCK1, amino acids 1-535) (Homo sapiens, UniProt Q13464)
Construct: ROCK1, amino acids 1-535; purchased Invitrogen Inc. PV-3691
Sequence (Q13464 1-535): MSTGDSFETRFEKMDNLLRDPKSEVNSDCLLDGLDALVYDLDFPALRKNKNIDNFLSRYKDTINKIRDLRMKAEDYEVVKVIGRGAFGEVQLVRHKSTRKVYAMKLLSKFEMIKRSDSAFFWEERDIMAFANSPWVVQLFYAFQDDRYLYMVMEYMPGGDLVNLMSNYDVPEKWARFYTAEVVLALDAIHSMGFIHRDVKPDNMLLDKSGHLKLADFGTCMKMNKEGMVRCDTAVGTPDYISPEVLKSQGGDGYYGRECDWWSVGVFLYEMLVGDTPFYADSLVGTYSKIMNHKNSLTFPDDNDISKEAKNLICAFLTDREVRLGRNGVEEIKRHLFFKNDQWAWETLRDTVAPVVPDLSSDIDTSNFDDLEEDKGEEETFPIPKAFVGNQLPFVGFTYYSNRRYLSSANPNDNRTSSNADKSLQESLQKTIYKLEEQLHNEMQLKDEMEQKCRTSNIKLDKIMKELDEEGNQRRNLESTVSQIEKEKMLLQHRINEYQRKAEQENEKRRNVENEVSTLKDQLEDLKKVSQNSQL
Experiment: In vitro Rho kinase assay (luciferase-based ATP consumption), ROCK1
Type: biochemical
Details: recombinant GST-tagged human ROCK1, luciferase-based ATP consumption; read-out: ROCK1 IC50
Experimental: In Vitro Rho Kinase Assay Rho kinase biochemical assays described below depend on firefly luciferase-based, indirect measurement of total ATP consumption by the kinase following incubation with substrate and ATP. […] After an additional 10 minute incubation at room temperature (about 22° C.), luminescence activity is measured on a Molecular Devices Analyst multi-mode plate reader or other suitable plate reader. […] Negative control activity is measured with DMSO lacking any test compound. […]
pIC50: −log10 of the molar value.

Compound	pIC50
COc1cccc(Cc2ccc3sc(-c4ccnc(N)n4)c(C)c3c2)c1 [Example 26]	> 5.30
Cc1c(-c2ccnc(N)n2)sc2ccc(CNC(=O)CC3Cc4ccccc4C3)cc12 [Example 198]	< 5.30
COc1cccc(Sc2ccc3sc(-c4ccnc(N)n4)c(C)c3c2)c1 [Example 83]	> 5.30
Cc1c(-c2ccnc(N)n2)sc2ccc(CNC(=O)c3ccc([N+](=O)[O-])c(O)c3)cc12 [Example 226]	< 5.30
Cc1cc(C(=O)NCc2ccc3sc(-c4ccnc(N)n4)c(C)c3c2)ccc1Br [Example 286]	< 5.30
COc1cc(C(=O)NCc2ccc3sc(-c4ccnc(N)n4)c(C)c3c2)cc(OC)c1OC [Example 279]	< 5.30
CCN(CC)CCNc1nccc(Nc2ccc3sc(-c4ccnc(N)n4)c(C)c3c2)n1 [Example 77]	> 5.30
COc1cc(C(=O)NCc2ccc3sc(-c4ccnc(N)n4)c(C)c3c2)c([N+](=O)[O-])cc1OC [Example 301]	< 5.30

====

The entries below are paired with their reported pIC50.
Target: recombinant N-terminal GST-tagged human Rho kinase 1 (ROCK1, amino acids 1-535) (Homo sapiens, UniProt Q13464)
Construct: ROCK1, amino acids 1-535; purchased Invitrogen Inc. PV-3691
Assay: In vitro Rho kinase assay (luciferase-based ATP consumption), ROCK1
Assay type: biochemical
Settings: recombinant GST-tagged human ROCK1, luciferase-based ATP consumption; read-out: ROCK1 IC50
pIC50: −log10 of the molar value.
Result Type: pIC50

Compound	Result Type	Observed Value
Cc1c(-c2ccnc(N)n2)sc2ccc(CNC(=O)c3ccccc3Oc3ccccc3)cc12	pIC50	> 5.30
Cc1c(-c2ccnc(N)n2)sc2ccc(Nc3ccccc3)cc12	pIC50	> 5.30
Cc1c(-c2ccnc(N)n2)sc2ccc(CNC(=O)C(C(C)C)N(C)C(=O)OC(C)(C)C)cc12 (centres unmarked)	pIC50	< 5.30
Cc1c(-c2ccnc(N)n2)sc2ccc(CNC(=O)c3cc(Cl)ccc3[N+](=O)[O-])cc12	pIC50	> 5.30
Cc1cccc(C(=O)NCc2ccc3sc(-c4ccnc(N)n4)c(C)c3c2)c1O	pIC50	< 5.30
Cc1cccc(C(=O)NCc2ccc3sc(-c4ccnc(N)n4)c(C)c3c2)c1[N+](=O)[O-]	pIC50	< 5.30
CC(=O)Nc1cccc(NC(=O)c2ccc3sc(-c4ccnc(N)n4)c(C)c3c2)c1	pIC50	> 5.30
Cc1c(-c2ccnc(N)n2)sc2ccc(CNC(=O)c3ccc4c(c3)OCO4)cc12	pIC50	> 5.30

====

Target: recombinant N-terminal GST-tagged human Rho kinase 1 (ROCK1, amino acids 1-535) (Homo sapiens, UniProt Q13464)
Construct: ROCK1, amino acids 1-535; purchased Invitrogen Inc. PV-3691
Test: In vitro Rho kinase assay (luciferase-based ATP consumption), ROCK1
Assay type: biochemical
Details: recombinant GST-tagged human ROCK1, luciferase-based ATP consumption; read-out: ROCK1 IC50
pIC50: −log10 of the molar value.
Result Type: pIC50

COC(=O)c1ccc(C(=O)NCc2ccc3sc(-c4ccnc(N)n4)c(C)c3c2)cc1 > 5.30
Cc1c(-c2ccnc(N)n2)sc2ccc(CNC(=O)C=Cc3cccc(O)c3)cc12 > 5.30
Cc1c(-c2ccnc(N)n2)sc2ccc(CNC(=O)c3ccc(C#N)cc3)cc12 > 5.30
Cc1c(-c2ccnc(N)n2)sc2ccc(CNC(=O)c3ccccc3C(F)(F)F)cc12 > 5.30
Cc1c(-c2ccnc(N)n2)sc2ccc(CNC(=O)c3ccc(Br)cc3)cc12 < 5.30
CCc1c(-c2ccnc(N)n2)sc2ccc(Cl)cc12 > 5.30
COc1cc(NC(=O)c2sc3nc(-c4ccncc4)ccc3c2N)cc(OC)c1OC > 5.30
Cc1c(-c2ccnc(N)n2)sc2ccc(CNC(=O)c3cc(O)ccc3[N+](=O)[O-])cc12 < 5.30
Cc1cc(C)cc(C(=O)NCc2ccc3sc(-c4ccnc(N)n4)c(C)c3c2)c1 < 5.30
Cc1c(-c2ccnc(N)n2)sc2ccc(CNC(=O)c3cc(F)c(F)cc3[N+](=O)[O-])cc12 < 5.30
Cc1c(-c2ccnc(N)n2)sc2ccc(CNC(=O)c3ccccc3C(=O)c3ccc(O)cc3)cc12 > 5.30
Cc1c(C(=O)NCc2ccc3sc(-c4ccnc(N)n4)c(C)c3c2)oc2ccccc12 > 5.30
Cc1c(-c2ccnc(N)n2)sc2ccc(CNC(=O)COc3ccccc3C=O)cc12 > 5.30
Cc1c(-c2ccnc(N)n2)sc2ccc(CNC(=O)c3ccc(Oc4ccccc4)cc3)cc12 < 5.30
Cc1c(-c2ccnc(N)n2)sc2ccc(CNC(=O)c3ccc4cccc(O)c4n3)cc12 > 5.30
Cc1c(-c2cccnc2N)sc2ccc(Cl)cc12 < 5.30
Cc1c(-c2ccnc(N)n2)sc2ccc(Br)cc12 > 5.30

====

The entries below are paired with their reported pIC50.
Biological target: recombinant N-terminal GST-tagged human Rho kinase 2 (ROCK2, amino acids 1-552) (Homo sapiens)
Construct: ROCK2, amino acids 1-552; purchased Invitrogen Inc. PV3759
Sequence (O75116 1-552): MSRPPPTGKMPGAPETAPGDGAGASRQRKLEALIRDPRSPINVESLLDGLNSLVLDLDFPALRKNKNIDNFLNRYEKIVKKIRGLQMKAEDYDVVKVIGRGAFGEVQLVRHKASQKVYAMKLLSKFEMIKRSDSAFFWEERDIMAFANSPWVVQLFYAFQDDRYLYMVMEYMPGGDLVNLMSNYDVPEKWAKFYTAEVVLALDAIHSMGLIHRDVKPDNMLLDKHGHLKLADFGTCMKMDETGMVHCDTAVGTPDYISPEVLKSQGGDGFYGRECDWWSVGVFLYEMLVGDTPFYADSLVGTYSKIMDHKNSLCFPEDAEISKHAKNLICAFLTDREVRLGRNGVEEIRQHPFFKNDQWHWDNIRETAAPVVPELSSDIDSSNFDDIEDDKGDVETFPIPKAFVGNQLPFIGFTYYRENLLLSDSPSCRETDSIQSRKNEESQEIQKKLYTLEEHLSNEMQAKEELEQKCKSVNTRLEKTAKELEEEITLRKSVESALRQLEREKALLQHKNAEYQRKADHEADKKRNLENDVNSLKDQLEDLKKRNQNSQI
Assay: In vitro Rho kinase assay (luciferase-based ATP consumption), ROCK2
Assay type: biochemical
Details: recombinant GST-tagged human ROCK2, luciferase-based ATP consumption; read-out: ROCK2 IC50
Experimental: In Vitro Rho Kinase Assay Rho kinase biochemical assays described below depend on firefly luciferase-based, indirect measurement of total ATP consumption by the kinase following incubation with substrate and ATP. […] After an additional 10 minute incubation at room temperature (about 22° C.), luminescence activity is measured on a Molecular Devices Analyst multi-mode plate reader or other suitable plate reader. […] Negative control activity is measured with DMSO lacking any test compound. […]
pIC50: −log10 of the molar value.
Result Type: pIC50

Molecule	Result Type	Observed Value
Cc1c(-c2ccnc(N)n2)sc2ccc(CNC(=O)c3ccc(OCc4ccccc4)cc3)cc12 [Example 302]	pIC50	< 5.30
Cc1c(-c2ccnc(N)n2)sc2ccc(CNC(=O)C(C)O)cc12 (stereo not drawn) [Example 98]	pIC50	> 5.30
Cc1c(-c2ccnc(N)n2)sc2ccc(C(=O)NCC(C)C)cc12 [Example 342]	pIC50	> 5.30
Cc1ccccc1OCC(=O)NCc1ccc2sc(-c3ccnc(N)n3)c(C)c2c1 [Example 175]	pIC50	> 5.30
Cc1c(-c2c[nH]c3ncccc23)sc2ccc(Cl)cc12 [Example 5]	pIC50	< 5.30
Cc1cc(C(=O)NCc2ccc3sc(-c4ccnc(N)n4)c(C)c3c2)n[nH]1 [Example 113]	pIC50	> 5.30
CCCCN(CC)C(=O)c1ccc2sc(-c3ccnc(N)n3)c(C)c2c1 [Example 477]	pIC50	> 5.30
Cc1c(-c2ccnc(N)n2)sc2ccc(CNC(=O)c3cccc(F)c3)cc12 [Example 124]	pIC50	> 5.30
COc1cccc(C(N)c2ccc3sc(-c4ccnc(N)n4)c(C)c3c2)c1 (stereo not drawn) [Example 32]	pIC50	> 5.30
CCCN(CCC)C(=O)c1ccc2sc(-c3ccnc(N)n3)c(C)c2c1 [Example 478]	pIC50	> 5.30
Cc1c(-c2ccnc(N)n2)sc2ccc(C(=O)N(Cc3ccccc3)C(C)C)cc12 [Example 505]	pIC50	> 5.30
Cc1c(-c2ccnc(N)n2)sc2ccc(CNC(=O)c3cc(O)c(O)c(O)c3)cc12 [Example 185]	pIC50	> 5.30
Cc1c(-c2ccnc(N)n2)sc2ccc(CNC(=O)c3ccc(I)cc3)cc12 [Example 319]	pIC50	> 5.30
CCOc1ccccc1C(=O)NCc1ccc2sc(-c3ccnc(N)n3)c(C)c2c1 [Example 174]	pIC50	< 5.30
Nc1nccc(-c2sc3ccc(Cl)cc3c2-c2ccccc2)n1 [Example 17]	pIC50	< 5.30
Cc1c(-c2ccnc(N)n2)sc2ccc(C(=O)N3CCN(Cc4ccc5c(c4)OCO5)CC3)cc12 [Example 563]	pIC50	> 5.30
Cc1c(-c2ccnc(N)n2)sc2ccc(Sc3cccc(C(=O)O)c3)cc12 [Example 86]	pIC50	> 5.30
Cc1c(-c2ccnc(N)n2)sc2ccc(CNC(=O)c3csc4ccccc34)cc12 [Example 201]	pIC50	> 5.30
